Test system: DCAMKL2;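 also: KINOMEscan kinase panel screen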
Construct: gene DCLK2
Particulars: concentration: 1 μM, replicates: in singlicate; n = 1
Measured metric: %Inh (%)
The reply should be a number in %, with the unit left off.

O=c1cc(N2CCOCC2)nc2n(Cc3cccc(C(F)(F)F)c3)ccn12	10
C[C@@H](Oc1cc(-n2cnc3ccc(NC(=O)NC(C)(C)C)cc32)sc1C(N)=O)c1ccccc1Cl	0
CSc1ccc(-c2cc3ncnc(SCC(=O)O)c3s2)cc1	15
Nc1nccc(-c2c(-c3ccc(F)cc3)ncn2C2CCN(CC(F)(F)F)CC2)n1	0
O=C(Nc1cccc(-c2nn3ncccc3c2-c2ccnc(Nc3cccc(C(F)(F)F)c3)n2)c1)c1c(F)cccc1F	0

Challenge: Read off the recorded %Inh for Cc1c2ccc(N(C)c3ccnc(Nc4cccc(S(N)(=O)=O)c4)n3)cc2nn1Cc1ccccc1.Cl.Cl
Response given: 0

Challenge: Respond only with %Inh recorded for COc1cc2c(cc1OCCN1CCN(C)CC1)ncc1c3ccc(C#N)cc3[nH]c21
Response given: 0

Challenge: Read the entry COc1ccc(Nc2nccc(N3CCC(NC(=O)Nc4cccc(C(C)=O)c4)C3)n2)cc1 (centres unmarked) and write its reported %Inh.
Response given: 0

Measured values drawn from paper PMC5540273 for this set.
